EXPERIMENTAL_READOUT: Ki (nM)
Give a bare numeral; the unit nM is implied.

# assay system H₃ receptors (Cavia porcellus, UniProt Q9JI35): give Ki of c1nc(CN2CCNCC2)c[nH]1
4.7

Write down measured Ki (H₃ receptors (Cavia porcellus, UniProt Q9JI35)) for this compound. NCCc1c[nH]cn1 [(a*), reference compound]
14
